Source listed as paper PMC7998731.

Target: CYP2C9 (Homo sapiens, UniProt P11712)
Construct: purchased Thermo Fisher Scientific
Sequence (P11712 whole entry): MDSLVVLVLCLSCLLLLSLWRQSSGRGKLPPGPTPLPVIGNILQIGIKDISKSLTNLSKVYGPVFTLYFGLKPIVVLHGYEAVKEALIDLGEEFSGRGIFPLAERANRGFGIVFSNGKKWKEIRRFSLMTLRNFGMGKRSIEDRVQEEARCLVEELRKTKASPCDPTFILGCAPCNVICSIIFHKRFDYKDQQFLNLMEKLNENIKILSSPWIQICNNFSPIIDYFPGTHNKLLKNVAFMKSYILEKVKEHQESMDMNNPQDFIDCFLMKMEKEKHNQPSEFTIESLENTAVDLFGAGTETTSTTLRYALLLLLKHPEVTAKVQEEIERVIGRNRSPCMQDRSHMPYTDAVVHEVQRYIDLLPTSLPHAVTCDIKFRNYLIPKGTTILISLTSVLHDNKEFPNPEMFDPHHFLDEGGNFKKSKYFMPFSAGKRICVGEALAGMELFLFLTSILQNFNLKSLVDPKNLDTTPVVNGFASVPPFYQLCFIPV
Test: CYP inhibition, Vivid CYP450 screening kit
Type: in vitro ADME
Conditions: recombinant human CYP2C9 (P450 Baculosomes), probe Vivid substrate; human recombinant CYP2C9, 10 µM; read-out: inhibition compared to the vehicle control
Property label: inhibition at 30 min, 10 µM
Answers without a unit are incomplete; give the number and then its unit.

response.value for COc1cc(OC)cc(N2CCN(C(=O)Nc3nc4cc(F)ccc4nc3OC)CC2)c1 [supinoxin] (field: inhibition at 30 min, 10 µM) = 16.2%

* * *

Test: Unbound fraction in microsomal incubation mixture (Rapid Equilibrium Dialysis)
Type: in vitro ADME
Conditions: rat, liver microsomes 0.5 mg protein/mL, 24 h incubation
Property label: fraction unbound at 24 h, 1 µM
Answer field: number only, no words.

Just so you know, measured fraction unbound at 24 h, 1 µM for COc1cc(OC)cc(N2CCN(C(=O)Nc3nc4cc(F)ccc4nc3OC)CC2)c1 came out at 0.615

* * *

Assay: In vivo pharmacokinetic study, oral administration to rats
Details: Sprague-Dawley, rat, plasma; fasted male SD rats, oral 5 mg/kg, 3 h
Protocol: Male Sprague Dawley (SD) rats, 6–7 weeks old, were purchased from Orient Bio Inc. (Seongnam-si, Korea) and were used in all in vivo studies. […] The peak concentration (Cmax) and the time to reach Cmax (Tmax) were obtained directly from individual plasma concentration–time profiles. […] The systemic clearance (CL), mean residence time (MRT), and the volume of the distribution at the steady state (Vss) were calculated as follows: dose/AUC, AUMC/AUC, and MRT·CL, respectively. […]
Property label: concentration at 3 h (ng/mL)
Output spec: scalar in ng/mL, unitless text.

The reported concentration at 3 h of the compound COc1cc(OC)cc(N2CCN(C(=O)Nc3nc4cc(F)ccc4nc3OC)CC2)c1 was 480

* * *

Experiment: In vivo pharmacokinetic study, intravenous administration to rats
Conditions: male, Sprague Dawley, rat, plasma; rats, intravenous, 5 mg/kg; read-out: CL (converted)
Protocol: Male Sprague Dawley (SD) rats, 6–7 weeks old, were purchased from Orient Bio Inc. (Seongnam-si, Korea) and were used in all in vivo studies. […] The peak concentration (Cmax) and the time to reach Cmax (Tmax) were obtained directly from individual plasma concentration–time profiles. […] The systemic clearance (CL), mean residence time (MRT), and the volume of the distribution at the steady state (Vss) were calculated as follows: dose/AUC, AUMC/AUC, and MRT·CL, respectively. […]
Property label: clearance
The answer consists of two parts: a number and, after it, its unit.

// clearance value for COc1cc(OC)cc(N2CCN(C(=O)Nc3nc4cc(F)ccc4nc3OC)CC2)c1 : 14.4 mL/min/kg

* * *

Assay: In vivo pharmacokinetic study, intravenous administration to rats
Conditions: male, Sprague-Dawley, rat, plasma; PBPK input parameter, Determined, from intravenous administration study; read-out: In vivo clearance (CLiv)
Property label: clearance

Quick note, clearance for COc1cc(OC)cc(N2CCN(C(=O)Nc3nc4cc(F)ccc4nc3OC)CC2)c1 landed at 3.16 mL/min

* * *

Test: In vivo pharmacokinetic study, intravenous administration to rats
Details: Sprague-Dawley, rat, plasma; fasted male SD rats, intravenous 5 mg/kg, 0.083 h
Property label: concentration at 0.083 h

Field concentration at 0.083 h (entry COc1cc(OC)cc(N2CCN(C(=O)Nc3nc4cc(F)ccc4nc3OC)CC2)c1 ) reads 2.38 µg/mL

* * *

Assay: Tissue distribution (tissue-to-plasma partition) in rats
Format: in vivo
Settings: male, Sprague-Dawley, rat, kidney; Kidneys; rats, oral administration (5 mg/kg); read-out: Kp (tissue to plasma AUC ratio)
Property label: Kp
Reply briefly: the number, and no unit.

What the record says about COc1cc(OC)cc(N2CCN(C(=O)Nc3nc4cc(F)ccc4nc3OC)CC2)c1 [supinoxin] : Kp is 2.18

* * *

Assay: In vivo pharmacokinetic study, intravenous administration to rats
Settings: Sprague-Dawley, rat, plasma; fasted male SD rats, intravenous 5 mg/kg, 0.25 h
Property label: concentration at 0.25 h

Item: COc1cc(OC)cc(N2CCN(C(=O)Nc3nc4cc(F)ccc4nc3OC)CC2)c1 [supinoxin] | concentration at 0.25 h: 1640 ng/mL

* * *

Experiment: Transport of supinoxin in Caco-2 cells (bidirectional permeability)
Type: in vitro ADME
Details: human, Caco-2, PBPK input parameter, Determined; read-out: Caco-2 permeability
Property label: Papp A→B at 120 min, 1 µM (×10⁻⁶ cm/s)
Respond with the bare value in ×10⁻⁶ cm/s.

// recorded Papp A→B at 120 min, 1 µM for COc1cc(OC)cc(N2CCN(C(=O)Nc3nc4cc(F)ccc4nc3OC)CC2)c1 [supinoxin] : 18.5

* * *

Test: In vivo pharmacokinetic study, intravenous administration to rats
Settings: male, Sprague-Dawley, rat, plasma; rats, intravenous, range over doses 0.5–5 mg/kg; read-out: steady state volume of distribution
Property label: Vd

Record summary for COc1cc(OC)cc(N2CCN(C(=O)Nc3nc4cc(F)ccc4nc3OC)CC2)c1 [supinoxin] : reported Vd = 2.04 to 3.5 L/kg

* * *

Test: Tissue distribution (tissue-to-plasma partition) in rats
Format: in vivo
Settings: male, Sprague-Dawley, rat; Gut; rats, oral administration (5 mg/kg), mean; read-out: AUC0–24h
Property label: AUC(0-t) (ng·h/mL)
Your answer is read as ng·h/mL, so omit the unit and give the number.

So for COc1cc(OC)cc(N2CCN(C(=O)Nc3nc4cc(F)ccc4nc3OC)CC2)c1 [supinoxin] , the logged AUC(0-t) turned out to be 25300

* * *

Assay: In vivo pharmacokinetic study, oral administration to rats
Settings: male, Sprague-Dawley, rat, plasma; rats, oral, 5 mg/kg
Property label: Cmax (ng/mL)
Please reply with the bare figure in ng/mL and do not write the unit itself.

Value of Cmax reported for the molecule COc1cc(OC)cc(N2CCN(C(=O)Nc3nc4cc(F)ccc4nc3OC)CC2)c1 is 823

* * *

Assay: In vivo pharmacokinetic study, intravenous administration to rats
Conditions: Sprague-Dawley, rat, plasma; fasted male SD rats, intravenous 0.5 mg/kg, 7 h
Property label: concentration at 7 h (µg/mL)
Express your answer in µg/mL, writing the number without its unit.

Given item COc1cc(OC)cc(N2CCN(C(=O)Nc3nc4cc(F)ccc4nc3OC)CC2)c1 , the value recorded as its concentration at 7 h is 0.0208

* * *

Experiment: In vivo pharmacokinetic study, intravenous administration to rats
Settings: Sprague-Dawley, rat, plasma; fasted male SD rats, intravenous 0.5 mg/kg, 0.083 h
Property label: concentration at 0.083 h (ng/mL)
Quick reminder: number only, in ng/mL, skip the unit.

Measured concentration at 0.083 h, COc1cc(OC)cc(N2CCN(C(=O)Nc3nc4cc(F)ccc4nc3OC)CC2)c1 [supinoxin] : 313

* * *

Assay: In vivo pharmacokinetic study, intravenous administration to rats
Conditions: male, Sprague Dawley, rat, plasma; rats, intravenous, 0.5 mg/kg; read-out: CL (converted)
Property label: clearance

The compound listed as COc1cc(OC)cc(N2CCN(C(=O)Nc3nc4cc(F)ccc4nc3OC)CC2)c1 [supinoxin] has a reported clearance of 11.9 mL/min/kg

* * *

Experiment: In vivo pharmacokinetic study, oral administration to rats
Details: male, Sprague-Dawley, rat, plasma; rats, oral, 5 mg/kg
Property label: MRT (h)
Record the value in h, omitting the unit from your answer.

Lab book: MRT of COc1cc(OC)cc(N2CCN(C(=O)Nc3nc4cc(F)ccc4nc3OC)CC2)c1 [supinoxin] noted as 3.17

* * *

Test: In vivo pharmacokinetic study, intravenous administration to rats
Settings: male, Sprague Dawley, rat, plasma; rats, intravenous, 5 mg/kg
Property label: AUC(0-inf) (ng·h/mL)
Give just the number in ng·h/mL; leave the unit off.

// AUC(0-inf) lookup, molecule = COc1cc(OC)cc(N2CCN(C(=O)Nc3nc4cc(F)ccc4nc3OC)CC2)c1 , result: 6130

* * *

Experiment: In vivo pharmacokinetic study, intravenous administration to rats
Settings: male, Sprague Dawley, rat, plasma; rats, intravenous, 0.5 mg/kg
Property label: MRT (h)
Numeric only. Scale: h

Lab book: MRT of COc1cc(OC)cc(N2CCN(C(=O)Nc3nc4cc(F)ccc4nc3OC)CC2)c1 [supinoxin] noted as 2.92

* * *

Experiment: Metabolic stability in rat liver microsomes
Format: in vitro ADME
Conditions: pH 7.4; rat liver microsomes, NADPH, 1 µM; read-out: NADPH-dependent metabolic half-life
Property label: half-life at 1 µM (min)
Report as a plain number; the unit min is understood.

Lab note: measured half-life at 1 µM of COc1cc(OC)cc(N2CCN(C(=O)Nc3nc4cc(F)ccc4nc3OC)CC2)c1 [supinoxin] was 17.1

* * *

Test: In vivo pharmacokinetic study, oral administration to rats
Conditions: Sprague-Dawley, rat, plasma; fasted male SD rats, oral 5 mg/kg, 0.5 h
Property label: concentration at 0.5 h

The recorded concentration at 0.5 h for entry COc1cc(OC)cc(N2CCN(C(=O)Nc3nc4cc(F)ccc4nc3OC)CC2)c1 [supinoxin] equals 0.675 µg/mL
